- method description: recombinant UMI read abundance after kanamycin selection (control-corrected) (log10(CPM+1)); higher = more efficient recombination; extreme values may be limits of the assay; sequences stand for … in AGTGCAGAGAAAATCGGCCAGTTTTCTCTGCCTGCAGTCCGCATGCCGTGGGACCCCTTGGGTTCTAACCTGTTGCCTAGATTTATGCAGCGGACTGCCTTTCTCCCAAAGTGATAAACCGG…AGGTTGGTTTCACT; site = the 11-nt donor;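 further: IS621 bridge recombinase in Escherichia coli cells against a fixed T5 target plasmid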
Give Condition met when the value for recombinant UMI read abundance (log10) is at least 1. Give Condition not met when it is less.

Exercise: Check the entry GTTCGAGCATGGACCGGTTTTCCCGGTAATCCGTATTTGCA (site GTTCGAGCTCG) : does recombinant UMI read abundance (log10) equal or exceed 1?
Key: Condition not met

Provenance of the data: the supplement of paper PMC11208160
